system-tested: Sodium-dependent serotonin transporter (Homo sapiens)
Sequence (P31645 whole entry): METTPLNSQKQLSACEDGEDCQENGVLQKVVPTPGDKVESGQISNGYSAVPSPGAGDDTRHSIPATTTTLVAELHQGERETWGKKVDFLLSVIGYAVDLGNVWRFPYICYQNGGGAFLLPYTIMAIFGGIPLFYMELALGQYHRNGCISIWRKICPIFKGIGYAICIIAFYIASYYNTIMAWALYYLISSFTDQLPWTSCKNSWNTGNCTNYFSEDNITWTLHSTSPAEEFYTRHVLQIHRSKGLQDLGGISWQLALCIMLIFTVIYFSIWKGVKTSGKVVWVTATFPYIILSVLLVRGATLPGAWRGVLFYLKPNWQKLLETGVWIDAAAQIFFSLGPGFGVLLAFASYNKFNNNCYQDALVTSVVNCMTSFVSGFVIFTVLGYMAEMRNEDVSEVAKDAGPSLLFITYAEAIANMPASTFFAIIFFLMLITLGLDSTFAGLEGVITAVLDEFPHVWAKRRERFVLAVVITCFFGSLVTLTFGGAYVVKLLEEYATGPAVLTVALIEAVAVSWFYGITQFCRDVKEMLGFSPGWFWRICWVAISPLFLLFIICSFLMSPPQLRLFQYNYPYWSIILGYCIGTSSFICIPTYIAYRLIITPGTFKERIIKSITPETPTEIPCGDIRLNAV
assay-method-text: Inhibition of human SERT expressed in HEK293 cells assessed as reduction in [3H]5-HT uptake by micro beta scintillation counting analysis
Format: cell-based
Provide the reported pIC50 of each item.
pIC50 is a log-scale quantity: -log10 of the concentration expressed in molar.

Identify pIC50 associated with the molecule "O=C(NCCCN1CCN(c2ccc(Cl)cc2Cl)CC1)c1ccc2ccccc2n1"
5.16

Identify pIC50 associated with the molecule "COc1ccccc1N1CCN(CCCNC(=O)c2ccc(-c3ccccc3)cc2)CC1"
5.35

Identify pIC50 associated with the molecule "O=C(NCCCN1CCN(c2cccc(Cl)c2Cl)CC1)c1ccc(-c2ccccc2)cc1"
6.00

Identify pIC50 associated with the molecule "Cc1ccc(N2CCN(CCCNC(=O)c3ccc4ccccc4n3)CC2)cc1"
6.64

Identify pIC50 associated with the molecule "O=C(NCCCN1CCN(c2ccc(Cl)cc2)CC1)c1ccc2ccccc2c1"
6.55

Identify pIC50 associated with the molecule "Cc1ccc(N2CCN(CCCNC(=O)c3ccc4ccccc4c3)CC2)cc1"
6.34

Identify pIC50 associated with the molecule "O=C(NCCCN1CCN(c2cccc(Cl)c2Cl)CC1)c1ccc2ccccc2c1"
6.13

Identify pIC50 associated with the molecule "O=C(NCCCN1CCN(c2ccccn2)CC1)c1ccc2ccccc2n1"
5.16

Identify pIC50 associated with the molecule "O=C(NCCCN1CCN(c2ccc(Cl)cc2)CC1)c1cc2ccccc2s1"
6.26

Identify pIC50 associated with the molecule "O=C(NCCCN1CCN(c2ccc(Cl)cc2)CC1)c1ccc2ccccc2n1"
5.88

Identify pIC50 associated with the molecule "COc1ccc(N2CCN(CCCNC(=O)c3ccc4ccccc4n3)CC2)cc1"
6.64

Identify pIC50 associated with the molecule "O=C(NCCCN1CCN(c2ccccn2)CC1)c1ccc2ccccc2c1"
5.02

Identify pIC50 associated with the molecule "O=C(NCCCN1CCN(c2ccc(C(F)(F)F)cc2)CC1)c1cc2ccccc2o1"
6.13

Identify pIC50 associated with the molecule "O=C(NCCCN1CCN(c2cccc(Cl)c2Cl)CC1)c1ccc2ccccc2n1"
5.93

Identify pIC50 associated with the molecule "O=C(NCCCN1CCN(c2ccc(Cl)c(Cl)c2)CC1)c1ccc2ccccc2n1"
6.56

Identify pIC50 associated with the molecule "O=C(NCCCN1CCN(c2cccc(Cl)c2Cl)CC1)c1cccc2ccccc12"
5.37

Identify pIC50 associated with the molecule "O=C(NCCCN1CCN(c2cccc(Cl)c2Cl)CC1)c1cc2ccccc2s1"
6.40

* * *

system-tested: UniProt P31645
assay-method-text: Inhibition of human SERT expressed in HEK293 cells assessed as reduction in [3H]5-HT uptake by micro beta scintillation counting analysis
measurement-type: IC50

Identify IC50 associated with the compound "O=C(NCCCN1CCN(c2ncccn2)CC1)c1cc(Cl)cc(Cl)c1"
> 10 µM

Identify IC50 associated with the compound "O=C(NCCCN1CCN(c2ccccn2)CC1)c1cc(Cl)cc(Cl)c1"
> 10 µM

Identify IC50 associated with the compound "COc1ccccc1N1CCN(CCCNC(=O)c2ccc3ccccc3n2)CC1"
> 10 µM

Identify IC50 associated with the compound "O=C(NCCCN1CCN(c2ccccn2)CC1)c1cccc2ccccc12"
> 10 µM

Identify IC50 associated with the compound "O=C(NCCCN1CCN(c2cccc(Cl)c2Cl)CC1)c1cc2ccccc2o1"
> 10 µM

Identify IC50 associated with the compound "O=C(NCCCN1CCN(c2ncccn2)CC1)c1ccc2ccccc2c1"
> 10 µM

Identify IC50 associated with the compound "O=C(NCCCN1CCN(c2ncccn2)CC1)c1ccc2ccccc2n1"
> 10 µM

Identify IC50 associated with the compound "O=C(NCCCN1CCN(c2ncccn2)CC1)c1cccc2ccccc12"
> 10 µM

Identify IC50 associated with the compound "O=C(NCCCN1CCN(c2cccc(Cl)c2Cl)CC1)c1cc(Cl)cc(Cl)c1"
> 10 µM

Identify IC50 associated with the compound "O=C(NCCCN1CCN(c2ccccc2)CC1)c1ccc2ccccc2n1"
> 10 µM

These data points were gathered from ChEMBL document CHEMBL4229444.
